- method summary: Volume of distribution at steady state following intravenous epirubicin at 150 mg.m-2 dose in patients with advanced cancer
- Assay type: ADME, organism-based
- test context: human, plasma, read-out: Vss
readout name: Vd (L/kg)
Return type: number; implicit unit L/kg.

What does the record list as Vd for COc1cccc2c1C(=O)c1c(O)c3c(c(O)c1C2=O)C[C@@](O)(C(=O)CO)C[C@@H]3O[C@H]1C[C@H](N)[C@@H](O)[C@H](C)O1.Cl [EPIRUBICIN HYDROCHLORIDE] ?
21

---

- method summary: Mean terminal half-life for ADR-529 following intravenous epirubicin at 1 mg.Kg-1 dose administered approximately 25 minute prior to epirubicin once weekly for four weeks in dog
- Type: ADME, organism-based, Canis lupus familiaris
- test context: Beagle, plasma
readout name: half-life

# half-life lookup, item `C[C@@H](CN1CC(=O)NC(=O)C1)N1CC(=O)NC(=O)C1`
1.2 h

---

- method summary: Half-life of terminal elimination phase of epirubicin following intravenous epirubicin at 20 mg.m-2 dose in cancer patients
- Format: ADME, organism-based
- test context: human, plasma
readout name: half-life (h)
// note: answer is a bare numeric in h

Recorded half-life for COc1cccc2c1C(=O)c1c(O)c3c(c(O)c1C2=O)C[C@@](O)(C(=O)CO)C[C@@H]3O[C@H]1C[C@H](N)[C@@H](O)[C@H](C)O1.Cl [EPIRUBICIN HYDROCHLORIDE] , please?
13.9

---

- method summary: Plasma clearance of epirubicin following intravenous epirubicin at 1 mg.Kg-1 dose in rabbit
- Type: ADME, organism-based, Oryctolagus cuniculus
- test context: both, New Zealand White
readout name: clearance

Please look up its clearance: COc1cccc2c1C(=O)c1c(O)c3c(c(O)c1C2=O)C[C@@](O)(C(=O)CO)C[C@@H]3O[C@H]1C[C@H](N)[C@@H](O)[C@H](C)O1.Cl [EPIRUBICIN HYDROCHLORIDE]
196 mL/min

---

- method summary: Mean residence time (MRT) of epirubicin following intrahepatic epirubicin solution at 1 mg.Kg-1 dose in rabbit
- Assay type: ADME, organism-based, Oryctolagus cuniculus
- test context: both, New Zealand White, blood, read-out: Mean residence time (converted)
readout name: MRT (h)
Respond with the bare value in h.

Which value of MRT has been reported for COc1cccc2c1C(=O)c1c(O)c3c(c(O)c1C2=O)C[C@@](O)(C(=O)CO)C[C@@H]3O[C@H]1C[C@H](N)[C@@H](O)[C@H](C)O1.Cl [EPIRUBICIN HYDROCHLORIDE] in the records?
1.38

---

- method summary: Mean residence time (MRT) of epirubicin following intravenous epirubicin emulsion at 1 mg.Kg-1 dose in rabbit
- Format: ADME, organism-based, Oryctolagus cuniculus
- test context: both, New Zealand White, blood, read-out: Mean residence time (converted)
readout name: MRT (min)
Write the number in min without appending the unit.

Fill in the blank: the reported MRT of COc1cccc2c1C(=O)c1c(O)c3c(c(O)c1C2=O)C[C@@](O)(C(=O)CO)C[C@@H]3O[C@H]1C[C@H](N)[C@@H](O)[C@H](C)O1.Cl [EPIRUBICIN HYDROCHLORIDE] is ____.
50.1

---

- method summary: Plasma clearance of epirubicin following intravenous epirubicin emulsion at 1 mg.Kg-1 dose in rabbit
- Type: ADME, organism-based, Oryctolagus cuniculus, Blood
- test context: both, New Zealand White
readout name: clearance
I'd appreciate it if you included the unit after the number.

// returns reported clearance for input COc1cccc2c1C(=O)c1c(O)c3c(c(O)c1C2=O)C[C@@](O)(C(=O)CO)C[C@@H]3O[C@H]1C[C@H](N)[C@@H](O)[C@H](C)O1.Cl [EPIRUBICIN HYDROCHLORIDE]
1560 mL/min

---

- method summary: Terminal half-life of epirubicin following intrahepatic epirubicin emulsion at 1 mg.Kg-1 dose in rabbit
- Assay type: ADME, organism-based, Oryctolagus cuniculus
- test context: both, New Zealand White, blood
readout name: half-life (min)
Unit min implied. Number only.

What value of half-life has been reported for the following molecule? COc1cccc2c1C(=O)c1c(O)c3c(c(O)c1C2=O)C[C@@](O)(C(=O)CO)C[C@@H]3O[C@H]1C[C@H](N)[C@@H](O)[C@H](C)O1.Cl [EPIRUBICIN HYDROCHLORIDE]
52.1

---

- method summary: Urinary elimination of 4'-epiadriamycin following intravenous bolus 4'-epiadriamycin at 10 mg.Kg-1 dose in rat
- Format: ADME, organism-based
- test context: SD, urine, read-out: Compound recovery
readout name: dose excreted (%)
Report the figure in % without appending any unit label.

Query: dose excreted; subject: COc1cccc2c1C(=O)c1c(O)c3c(c(O)c1C2=O)C[C@@](O)(C(=O)CO)C[C@@H]3O[C@H]1C[C@H](N)[C@@H](O)[C@H](C)O1.Cl [EPIRUBICIN HYDROCHLORIDE]
2.43

---

- method summary: Half-life of terminal elimination phase of epirubicin following intravenous epirubicin at 75-90 mg.m-2 dose in cancer patients
- Assay type: ADME, organism-based
- test context: human, plasma
readout name: half-life (h)
State the answer as a number, implicitly in h.

Could you share which half-life value was measured for COc1cccc2c1C(=O)c1c(O)c3c(c(O)c1C2=O)C[C@@](O)(C(=O)CO)C[C@@H]3O[C@H]1C[C@H](N)[C@@H](O)[C@H](C)O1.Cl [EPIRUBICIN HYDROCHLORIDE] ?
38

---

- assayed system: Albumin (Homo sapiens)
- Sequence (P02768 whole entry): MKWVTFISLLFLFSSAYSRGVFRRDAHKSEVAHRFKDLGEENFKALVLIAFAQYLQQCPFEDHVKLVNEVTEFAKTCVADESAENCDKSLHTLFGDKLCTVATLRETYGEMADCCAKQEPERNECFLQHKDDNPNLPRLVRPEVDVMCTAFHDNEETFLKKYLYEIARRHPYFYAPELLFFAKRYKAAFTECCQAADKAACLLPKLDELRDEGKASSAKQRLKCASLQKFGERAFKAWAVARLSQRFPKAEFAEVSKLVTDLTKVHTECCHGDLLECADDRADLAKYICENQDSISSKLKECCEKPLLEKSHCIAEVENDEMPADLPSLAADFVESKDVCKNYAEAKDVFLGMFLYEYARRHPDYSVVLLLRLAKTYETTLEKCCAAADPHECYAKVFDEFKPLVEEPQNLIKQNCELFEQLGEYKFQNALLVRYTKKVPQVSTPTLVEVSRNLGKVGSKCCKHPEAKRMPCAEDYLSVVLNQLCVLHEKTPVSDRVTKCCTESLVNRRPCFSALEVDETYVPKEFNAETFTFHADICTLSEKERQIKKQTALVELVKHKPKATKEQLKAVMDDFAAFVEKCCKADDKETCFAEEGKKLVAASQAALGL
- method summary: Binding of doxorubicin to albumin
- Type: cell-free
- test context: read-out: Plasma protein binding (converted)
readout name: fraction unbound
When you answer, write just the number.

For COc1cccc2c1C(=O)c1c(O)c3c(c(O)c1C2=O)C[C@@](O)(C(=O)CO)C[C@@H]3O[C@H]1C[C@H](N)[C@H](O)[C@H](C)O1 [DOXORUBICIN] , what is its reported fraction unbound?
0.38

---

- method summary: Volume of distribution of epirubicin following intrahepatic epirubicin emulsion at 1 mg.Kg-1 dose in rabbit
- Assay type: ADME, organism-based, Oryctolagus cuniculus
- test context: both, New Zealand White, blood
readout name: Vd (L/kg)
Give just the numeric value; L/kg need not be written.

Any idea what Vd was measured for COc1cccc2c1C(=O)c1c(O)c3c(c(O)c1C2=O)C[C@@](O)(C(=O)CO)C[C@@H]3O[C@H]1C[C@H](N)[C@@H](O)[C@H](C)O1.Cl [EPIRUBICIN HYDROCHLORIDE] ?
137

---

- method summary: Mean plasma clearance of epirubicin following intravenous epirubicin at 150 mg.m-2 dose in advanced cancer patients
- Format: ADME, organism-based
- test context: human, read-out: CLp (converted)
readout name: clearance (mL/min)
State the answer as a number, implicitly in mL/min.

// lookup clearance for COc1cccc2c1C(=O)c1c(O)c3c(c(O)c1C2=O)C[C@@](O)(C(=O)CO)C[C@@H]3O[C@H]1C[C@H](N)[C@@H](O)[C@H](C)O1.Cl [EPIRUBICIN HYDROCHLORIDE]
1130

---

- method summary: Terminal half-life of 4'-epiadriamycin following intravenous 4'-epiadriamycin at 1.27 mg.Kg-1 dose in dog
- Format: ADME, organism-based, Canis lupus familiaris
- test context: Beagle, plasma
readout name: half-life (min)
Reply with just the number (in min).

Reported half-life, molecule COc1cccc2c1C(=O)c1c(O)c3c(c(O)c1C2=O)C[C@@](O)(C(=O)CO)C[C@@H]3O[C@H]1C[C@H](N)[C@@H](O)[C@H](C)O1.Cl [EPIRUBICIN HYDROCHLORIDE] : ____
7.1

---

- method summary: AUC values (0-48 h) of doxorubicin in heart following single intravenous doxorubicin at 10 mg.Kg-1 dose in female mouse bearing colon tumor
- Assay type: ADME, organism-based, BALB/c
- Design: time < 48 hr, dose 10 mg.Kg-1, dosed compound id 2.46809e+06, dosed compound name Doxorubicin, gender F, regimen Single, route intravenous, sampling time 48 h
- test context: in vivo
readout name: AUC

Consider the compound `COc1cccc2c1C(=O)c1c(O)c3c(c(O)c1C2=O)C[C@@](O)(C(=O)CO)C[C@@H]3O[C@H]1C[C@H](N)[C@H](O)[C@H](C)O1` and give its measured AUC.
14100 nmol·min/g

---

- method summary: Volume of distribution of epirubicin following intravenous epirubicin at 3 mg.Kg-1 dose in rabbit
- Type: ADME, organism-based, Oryctolagus cuniculus
- test context: both, New Zealand White, plasma
readout name: Vd (L/kg)
Answer in L/kg, number only, no unit symbol.

Entry COc1cccc2c1C(=O)c1c(O)c3c(c(O)c1C2=O)C[C@@](O)(C(=O)CO)C[C@@H]3O[C@H]1C[C@H](N)[C@@H](O)[C@H](C)O1.Cl [EPIRUBICIN HYDROCHLORIDE] : reported Vd = ?
587

---

- method summary: Mean plasma clearance of epirubicin following intravenous epirubicin at 60 mg.m-2 dose in cancer patients
- Type: ADME, organism-based
- test context: human, read-out: CLp (converted)
readout name: clearance (mL/min)
Give just the numeric value; mL/min need not be written.

// lookup clearance for COc1cccc2c1C(=O)c1c(O)c3c(c(O)c1C2=O)C[C@@](O)(C(=O)CO)C[C@@H]3O[C@H]1C[C@H](N)[C@@H](O)[C@H](C)O1.Cl [EPIRUBICIN HYDROCHLORIDE]
1250
